Data credit: paper PMC11077049

measured_on: T1, SRSF1 RS (human, UniProt Q07955 199-248)
T1 chain: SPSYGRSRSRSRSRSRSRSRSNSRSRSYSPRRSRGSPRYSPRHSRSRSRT
protocol_notes: FP; FP, 10 nM RNA, 37 C 30 min then 25 C 10 min; 21-mers: 25 mM KCl, 0.25 M Arg/Glu, 20 mM Tris-HCl pH 7.5, 0.1 mM EDTA, 0.1 mM TCEP, 0.02% Tween 20; 8-mers: 35 mM
protocol_conditions: protein: recombinant; tags: none (SUMO cleaved); label: 5' fluorescein; G-quadruplex
pKd: −log10 of the molar value.
attribute_measured: pKd

[[record]]
binder = "UUGGGAGGGAGGGAGAGGGUU (structured_RNA) [MMP16 GQ]"
observed_value = 6.82

[[record]]
binder = "UGGGUUAGGGUUAGGGUUAGGG (structured_RNA) [TERRA GQ]"
observed_value = 7.59

